Assay: PET hydrolysis, aromatic products released after 48 h (umol product/mg enzyme); higher = more PET depolymerization activity
Settings: substrate: cryPow; 40 °C; pH 4.5
PET hydrolysis listing for selected sequences.

VQIGPAPTKASLEASRGPFTVATTRLSANGHGGGTIYYPTNAGAKVGVIAIVPGYLSYQSSIEWWGPRLASHGFAVVTIDTLTIYDQPSSRSSQQLRALDQVVALGSKSTSPLYNKVDGSRTGVMGWSMGGGGSLISAQNRPSIKAAAPQAPWNTTSNFSSLTVPTLIFACQADVVAPILSHAVPFYNSMSRNPKQYLERTAGDHFCFNNANPTVGLKGVAWMKRFIDGDTRYTSFACSNPNALGFSSFRTERCS [ESM053] | < 3

As a next step, examine the sequence that follows.
Enquiry: Fill in: PET hydrolysis of LTPSPTPPPTGGTGGCPADAICRGETPGSYSANGPYGSRSYTLSRIQTPGGATVYYPANAEPPFSGLVFTPPYTGSQFMYRAWGPFFASHGIVMVTMDTRTTLDSVDQRAAQQKQVLDALKAENTRSASPLRGKLDTSRLGAVGWSMGGGATWINSAEYSGLKTAMSLAGHNLSALDINARGSNTRVPTLIMNGALDATYLGGLGQSLGVYNNIPRGIPKVIYEVSSAGHFSWGSPTSAGRSVAQIALAFQKTFLDGDTRWATYIRRPSSGVATWRTANLP [ESM175] is ___
Return: < 3

----------
Assay: PET hydrolysis, aromatic products released after 48 h (umol product/mg enzyme); higher = more PET depolymerization activity
Details: substrate: cryPow; 40 °C; pH 6.5
Measure name: PET hydrolysis
API doc: respond with a numeric literal and nothing else, no unit.

DEIGQAPTAGNITGNGSFTTTSESISSLVSGFGGGRVYYPTTAGKYPVVAISPGFTATWSSLSWIGPRLSSWGFVVVGIETNSIYDQPASRGSQLLAALNWAVNSSSSAVRARVDGSRRGVAGHSMGGGGTLEALAADTTGLVKAGVPIAPWNSDKTWNNVSEPVMIVGGQSDTVAPVASHSIPFYNTLAGPKGYVELTGASHFFPQSTNATLSRALVAWFKRWLNQDSRFTPYTCGFSGLAVSDFRSNAC [ESM090] | 46
ATTSFQRGPAPTTASIQATSGPFATSQTTVSRISVTGFGGGDIYYPTSTSSGTFGAVAIAPGYTALRSSMAWLAPRIASQGFVVFNIDTLTTSDQPATRGTELLAALDYLTTRSTVRTRIDTTRLAVMGHSMGGGGTLEAAKSRPSLQAAIPLTPWDLNKSFAGLAVPTLIIGAQADTVAPVSQHAKPFFTSLPSGLDKAYLELAGASHFAPNTSNTTIASISIAWLKRFVDDDTRYDQFLCPGPTVGTAVSQFTTNCPHIS [ESM156] | 14.5

As a next step, examine the sequence that follows.
Enquiry: Fill in: PET hydrolysis of ADNPYQRGPDPTNASIEAATGPFAVGTQPIVGASGFGGGQIYYPTDTSQTYGAVVIVPGFISVWAQLNWLGPRLASQGFVVIGIETSVITDLPDPRGDQALAALDWATTRSPVASRIDRTRLAAAGWSMGGGGLRRAALQRPSLKAIVGMAPWNGERNWSAVTVPTLFFGGSSDAVASPNDHAKPFYNSITRAEKDYIELRNADHFFPTSANTTMAKYFISWLKRWVDNDTRYTQFLCPGPSTGLFAPVSASMNTCPF [DP077] is ___
Return: 73
